Kindly state melting point for each of the entries shown.

Request the reported melting point associated with Cc1cc(C)cc(S(=O)(=O)n2c(COC(C)(C)C(=O)O)cc3nc(Cl)ccc32)c1
154 °C

Request the reported melting point associated with CCCCc1nc2cncc(C)c2[nH]1
111 to 124 °C

Request the reported melting point associated with COCc1nc(-c2ccc(Br)c(C)c2)no1
52 to 53.5 °C

Request the reported melting point associated with CC1(C)CC(O)C(C)(C)c2cc(CC=Cc3ccccc3C#N)ccc21 (stereo unspecified)
163 to 165 °C

Request the reported melting point associated with Clc1ccc(Oc2ccccc2Oc2ncc(Cl)cn2)nc1
108 to 111 °C

Request the reported melting point associated with COc1ccc2cc3[nH]cc(C#N)c(=O)c3cc2c1
> 260 °C

Request the reported melting point associated with NS(=O)(=O)c1ccc(-c2noc(-c3cnn4c(C5CC5)cc(-c5ccc(C(F)(F)F)cc5)nc34)n2)cc1
313 °C

Request the reported melting point associated with COC(=O)c1c(C(F)(F)F)nc(C(F)(F)F)c(C(=O)OC)c1[Si](C)(C)C
29 to 31 °C

Request the reported melting point associated with O=C(c1ccccc1CBr)c1cc(Cl)ccc1CBr
152 to 153 °C

Request the reported melting point associated with OC1(c2ccncc2)CCc2ccccc21 (stereo unspecified)
151 °C

Request the reported melting point associated with N=C(N)Nc1nc(C(=O)NCCCC(CC(=O)O)c2ccccc2)cs1 (racemic)
230 °C

Request the reported melting point associated with O=C(NCc1ccncc1)c1cc2ccnc(Cl)c2[nH]1
> 340 °C

Request the reported melting point associated with Cc1cc(OCc2ccccc2)c2cc(C(N)=O)[nH]c2c1
185 to 187 °C

Request the reported melting point associated with CC1(C)CC(=O)C2=C(C1)NC1=C(C(=O)CC(C)(C)C1)C2c1ccc(Cl)c(Cl)c1
> 300 °C

Request the reported melting point associated with Cc1c(CN2CCC(c3c(Cl)cccc3Cl)CC2)[nH]c2ccccc12
139 to 141 °C

Request the reported melting point associated with COC(=O)COc1ccc2cc(-c3cnc(-c4cn(Cc5ccccc5)c5ccccc45)o3)ccc2c1
204 to 207 °C

Request the reported melting point associated with COc1ccc2c(c1)C13CCN(C)C(C2)C1CCC(=O)C3 (stereo unspecified)
187 to 188 °C

Request the reported melting point associated with CCC(Nc1ccc(OC)nc1)n1nnc2ccccc21 (stereo unspecified)
109 to 110 °C

Request the reported melting point associated with CC(C)OCCCNC(=O)C(C)(C(C)C)C(C)C
32 °C

Request the reported melting point associated with Nc1nc2c(s1)CCN(CC1CC1c1ccccc1)CC2 (stereo unspecified)
109 to 113 °C

Request the reported melting point associated with O=C(c1nccs1)c1cnn2c(-c3ccncc3)ccnc12
323 to 325 °C

====

Kindly state melting point for each of the entries shown.

Request the reported melting point associated with c1ccc(COc2cncc(N3CCNCC3)n2)cc1
155 to 156 °C

Request the reported melting point associated with CCOC(=O)C1=C(COC)NC(COC)=C(C(=O)OCC)C1c1ccc(SC)cc1
136 to 138 °C

Request the reported melting point associated with N#Cc1c(-c2ccccc2)c(-c2ccccc2)n[nH]c1=O
280 to 281 °C

Request the reported melting point associated with CCn1nc(C(C)(C)C)cc1C(=O)Nc1ccc(F)c(C(=O)N(C)C)c1
93 to 95 °C

Request the reported melting point associated with Cn1c([N+](=O)[O-])cnc1-c1nc2ccccc2c(=O)[nH]1
256 to 260 °C

Request the reported melting point associated with CCCSc1ccccc1S(N)(=O)=O
58 to 64 °C
